# System: Plasmodium falciparum
# assay_protocol: microbe, parasite or virus in culture
# condition: SKF58
Hi! Could you tag entries with IC50 below 200 nM as 1 (yes), and those at or above as 0 (no)? Much appreciated.

compound	tested_on	label_value
Cn1cc2c3cc(Br)ccc3nc-2c2cccc(F)c21	Plasmodium falciparum	0 (no)
Cc1cc(Br)cc2c3cn(C)c4ccc(Cl)cc4c-3nc12	Plasmodium falciparum	1 (yes)
COc1ccc2nc3c4cc(Cl)ccc4n(C)cc-3c2c1	Plasmodium falciparum	0 (no)
Cn1cc2c3ccccc3nc-2c2cccc(Cl)c21	Plasmodium falciparum	0 (no)
Cn1cc2c3cc(Br)ccc3nc-2c2cc(OC(F)(F)F)ccc21	Plasmodium falciparum	1 (yes)
Cn1cc2c3cc(Br)ccc3nc-2c2cccc(Cl)c21	Plasmodium falciparum	0 (no)
Cn1cc2c3cc(F)ccc3nc-2c2cc(Cl)ccc21	Plasmodium falciparum	1 (yes)
Cn1cc2c3ccccc3nc-2c2ccccc21 [ISOCRYPTOLEPINE]	Plasmodium falciparum	0 (no)

----------
# System: MRC5
# assay_protocol: Cytotoxicity against human MRC5 cells by MTT assay
# Format: cell-based
Entries and their IC50

compound	readout_qualifier	IC50 / µM
Cn1cc2c3cc(Br)ccc3nc-2c2cc(F)cc(Cl)c21	=	108
Cn1cc2c3cc(Br)ccc3nc-2c2ccc(F)c(F)c21	>	72
COc1ccc2nc3c4cc(Cl)ccc4n(C)cc-3c2c1	=	3.1
Cn1cc2c3cc(Br)ccc3nc-2c2cccc(Cl)c21	=	3.15
Cn1cc2c3cc(Br)ccc3nc-2c2cccc(F)c21	=	15.3
Cn1cc2c3ccccc3nc-2c2ccccc21 [ISOCRYPTOLEPINE]	=	8.35
Cn1cc2c3ccccc3nc-2c2cc(Cl)ccc21	=	10.4
Cc1cc(Br)cc2c3cn(C)c4ccc(Cl)cc4c-3nc12	=	5.43
Cn1cc2c3ccc4ccccc4c3nc-2c2cc(Cl)ccc21	=	2.62
Cn1cc2c3ccccc3nc-2c2cccc(Cl)c21	=	12.4
Cn1cc2c3cc(Br)ccc3nc-2c2cc(F)ccc21	=	122
Cn1cc2c3cc(F)ccc3nc-2c2cc(Cl)ccc21	=	4.04
COc1cccc2c1C(=O)c1c(O)c3c(c(O)c1C2=O)C[C@@](O)(C(=O)CO)C[C@@H]3O[C@H]1C[C@H](N)[C@H](O)[C@H](C)O1	>	92
Cc1cccc2c3nc4ccccc4c-3cn(C)c12	=	39.5
Cn1cc2c3cc(Cl)ccc3nc-2c2cc(Cl)ccc21	=	25.2
Cn1cc2c3cc(Br)ccc3nc-2c2cc(Cl)ccc21	>	145
Cn1cc2c3cc(Br)ccc3nc-2c2cc(Cl)cc(F)c21	>	138
Cn1cc2c3cc(Br)ccc3nc-2c2cc(OC(F)(F)F)ccc21	=	86.6
Cn1cc2c3cc(Br)ccc3nc-2c2ccc(F)cc21	=	26.3
Cn1cc2c3cc(Br)ccc3nc-2c2cc(C(F)(F)F)ccc21	>	132

----------
# assay_protocol: Selectivity index, ratio of IC50 for human MRC5 cells to IC50 for chloroquine/mefloquine-resistant Plasmodium falciparum SKF58
# Assay type: toxicity, cell-based
# condition: read-out: Ratio IC50
Assign labels as follows, please: MET for selectivity ratio below 60; NOT MET for selectivity ratio equal to or exceeding 60.

compound	label_value
Cn1cc2c3cc(Br)ccc3nc-2c2cccc(F)c21	NOT MET
Cn1cc2c3ccccc3nc-2c2ccccc21 [ISOCRYPTOLEPINE]	MET
COc1ccc2nc3c4cc(Cl)ccc4n(C)cc-3c2c1	MET
Cn1cc2c3cc(Br)ccc3nc-2c2cc(F)ccc21	NOT MET
Cn1cc2c3cc(Br)ccc3nc-2c2cc(C(F)(F)F)ccc21	NOT MET
Cn1cc2c3cc(Cl)ccc3nc-2c2cc(Cl)ccc21	NOT MET
Cn1cc2c3cc(Br)ccc3nc-2c2cc(Cl)cc(F)c21	NOT MET
Cn1cc2c3cc(Br)ccc3nc-2c2cc(OC(F)(F)F)ccc21	NOT MET
Cn1cc2c3ccccc3nc-2c2cc(Cl)ccc21	MET
Cc1cccc2c3nc4ccccc4c-3cn(C)c12	MET
Cn1cc2c3cc(Br)ccc3nc-2c2ccc(F)cc21	NOT MET

----------
Reported selectivity ratio values are given for each entry in this list.
# assay_protocol: Selectivity index, ratio of IC50 for human MRC5 cells to IC50 for […]
# Assay type: toxicity, cell-based
# condition: read-out: Ratio IC50

smiles_representation	selectivity ratio
Cn1cc2c3cc(Cl)ccc3nc-2c2cc(Cl)ccc21	146
Cn1cc2c3cc(Br)ccc3nc-2c2cccc(F)c21	86.1
Cn1cc2c3cc(Br)ccc3nc-2c2ccc(F)cc21	693
Cc1cccc2c3nc4ccccc4c-3cn(C)c12	24.6

----------
# assay_protocol: Selectivity index, ratio of IC50 for human MRC5 cells to IC50 for chloroquine-resistant Plasmodium falciparum K1
# Type: toxicity, cell-based
# condition: read-out: Ratio IC50
selectivity ratio overview

molecule	readout_qualifier	selectivity ratio
Cn1cc2c3cc(Br)ccc3nc-2c2cc(OC(F)(F)F)ccc21	=	1280
Cn1cc2c3cc(Br)ccc3nc-2c2cc(Cl)cc(F)c21	>	101
Cn1cc2c3cc(Br)ccc3nc-2c2ccc(F)cc21	=	425
Cn1cc2c3cc(Br)ccc3nc-2c2cc(Cl)ccc21	>	623
Cn1cc2c3cc(Br)ccc3nc-2c2cc(C(F)(F)F)ccc21	>	96.4
Cn1cc2c3cc(Br)ccc3nc-2c2cccc(F)c21	=	51.8
Cn1cc2c3ccccc3nc-2c2ccccc21 [ISOCRYPTOLEPINE]	=	10.7
Cn1cc2c3ccccc3nc-2c2cc(Cl)ccc21	=	32.5
Cn1cc2c3cc(F)ccc3nc-2c2cc(Cl)ccc21	=	14.1
COc1ccc2nc3c4cc(Cl)ccc4n(C)cc-3c2c1	=	7.52
Cn1cc2c3cc(Cl)ccc3nc-2c2cc(Cl)ccc21	=	110
Cn1cc2c3ccc4ccccc4c3nc-2c2cc(Cl)ccc21	=	24.1
Cn1cc2c3cc(Br)ccc3nc-2c2ccc(F)c(F)c21	>	53.2
Cn1cc2c3cc(Br)ccc3nc-2c2cc(F)ccc21	=	650
Cc1cccc2c3nc4ccccc4c-3cn(C)c12	=	22.2
Cc1cc(Br)cc2c3cn(C)c4ccc(Cl)cc4c-3nc12	=	37.8

----------
# System: A549
# assay_protocol: Cytotoxicity against human A549 cells by MTT assay
# Assay type: functional, cell-based
Friendly reminder: IC50 below 10 µM is T, at or above is F.

smiles_representation	label_value
Cn1cc2c3cc(Br)ccc3nc-2c2cc(F)ccc21	F
Cn1cc2c3cc(Cl)ccc3nc-2c2cc(Cl)ccc21	F
Cn1cc2c3cc(F)ccc3nc-2c2cc(Cl)ccc21	T
COc1ccc2nc3c4cc(Cl)ccc4n(C)cc-3c2c1	T
Cn1cc2c3cc(Br)ccc3nc-2c2ccc(F)c(F)c21	F
Cc1cccc2c3nc4ccccc4c-3cn(C)c12	F

----------
# assay_protocol: Selectivity index, ratio of IC50 for human MRC5 cells to IC50 for chloroquine/mefloquine-resistant Plasmodium falciparum SKF58
# Type: toxicity, cell-based
# condition: read-out: Ratio IC50
observed_property: selectivity ratio

smiles_representation	readout_qualifier	number
Cn1cc2c3cc(Br)ccc3nc-2c2ccc(F)c(F)c21	>	7.3
Cn1cc2c3cc(Br)ccc3nc-2c2cc(Cl)ccc21	>	893
Cn1cc2c3ccc4ccccc4c3nc-2c2cc(Cl)ccc21	=	34.3
Cn1cc2c3cc(F)ccc3nc-2c2cc(Cl)ccc21	=	22.8

----------
# Tested on: A549
# assay_protocol: Cytotoxicity against human A549 cells by MTT assay
# Format: functional, cell-based
Field: label. Allowed values: 1 (yes) (IC50 < 8 µM) or 0 (no) (IC50 >= 8 µM).

molecule	label_value
Cn1cc2c3cc(Br)ccc3nc-2c2cc(OC(F)(F)F)ccc21	0 (no)
Cc1cc(Br)cc2c3cn(C)c4ccc(Cl)cc4c-3nc12	1 (yes)
Cn1cc2c3ccccc3nc-2c2cccc(Cl)c21	0 (no)
Cn1cc2c3cc(Br)ccc3nc-2c2cccc(F)c21	1 (yes)
Cn1cc2c3cc(Br)ccc3nc-2c2cc(C(F)(F)F)ccc21	0 (no)
Cn1cc2c3cc(Br)ccc3nc-2c2cc(F)cc(Cl)c21	0 (no)
Cn1cc2c3cc(Br)ccc3nc-2c2cc(Cl)ccc21	1 (yes)
Cn1cc2c3ccc4ccccc4c3nc-2c2cc(Cl)ccc21	1 (yes)
Cn1cc2c3cc(Br)ccc3nc-2c2cccc(Cl)c21	1 (yes)
Cn1cc2c3ccccc3nc-2c2cc(Cl)ccc21	1 (yes)
Cn1cc2c3ccccc3nc-2c2ccccc21 [ISOCRYPTOLEPINE]	1 (yes)

----------
# Tested on: Plasmodium falciparum
# assay_protocol: microbe, parasite or virus in culture
# condition: K1
# Description: Antiplasmodial activity against chloroquine-resistant Plasmodium falciparum K1
Assign classes using reported IC50 values and the ranges low band (below 200 nM), middle band (200 nM to below 300 nM), high band (300 nM or more), please.

compound	label_value
Cn1cc2c3cc(Br)ccc3nc-2c2cccc(Cl)c21	high band
Cn1cc2c3cc(Br)ccc3nc-2c2cc(F)ccc21	low band
C=C[C@H]1CN2CC[C@H]1C[C@H]2[C@H](O)c1ccnc2ccc(OC)cc12	low band
Cn1cc2c3ccccc3nc-2c2cc(Cl)ccc21	high band
Cn1cc2c3cc(Br)ccc3nc-2c2cc(C(F)(F)F)ccc21	high band
Cn1cc2c3cc(Br)ccc3nc-2c2cc(Cl)cc(F)c21	high band
Cn1cc2c3cc(Br)ccc3nc-2c2cc(F)cc(Cl)c21	high band
Cn1cc2c3cc(Br)ccc3nc-2c2cc(OC(F)(F)F)ccc21	low band
Cn1cc2c3cc(F)ccc3nc-2c2cc(Cl)ccc21	middle band
Cn1cc2c3cc(Cl)ccc3nc-2c2cc(Cl)ccc21	middle band
Cc1cccc2c3nc4ccccc4c-3cn(C)c12	high band
Cn1cc2c3cc(Br)ccc3nc-2c2cc(Cl)ccc21	middle band
Cc1cc(Br)cc2c3cn(C)c4ccc(Cl)cc4c-3nc12	low band
COc1ccc2nc3c4cc(Cl)ccc4n(C)cc-3c2c1	high band
Cn1cc2c3cc(Br)ccc3nc-2c2ccc(F)cc21	low band
Cn1cc2c3cc(Br)ccc3nc-2c2ccc(F)c(F)c21	high band
Cn1cc2c3ccccc3nc-2c2cccc(Cl)c21	high band
Cn1cc2c3ccc4ccccc4c3nc-2c2cc(Cl)ccc21	low band
C[C@H]1[C@H](OC(=O)CCC(=O)O)O[C@@H]2O[C@@]3(C)CC[C@H]4[C@H](C)CC[C@@H]1[C@@]24OO3 [ARTESUNATE]	low band
